test system: PPARg:RXRa DBDmut IVT, anti-RXR (DBD mutation: RXRa K156A/R161A, NR concentration 270 nM, RXRa partner concentration 90 nM); assay: PBM binding z-score (relative to random genomic background probes); higher = stronger binding; sequences stand for … in GC…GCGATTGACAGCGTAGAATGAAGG
MEASURED PROPERTY: PBM binding z-score
Lab note: jot the number down without any unit.

Query block: Find the recorded PBM binding z-score belonging to TCGAGTTGGTCAAAGGTCACACACTCGAAATGCG and report it.
Result block: 1.75

Query block: Find the recorded PBM binding z-score belonging to ATACCAAGGTGATCGTGAGGTCATTGATACTAAC and report it.
Result block: 0.662

Query block: Find the recorded PBM binding z-score belonging to CAACCAAGGTGAACAAGGTCGTTGATTACTATTC and report it.
Result block: 2.56

Query block: Find the recorded PBM binding z-score belonging to TGGATGAGGTTATAAGATCAGGGAACGTTGCAAA and report it.
Result block: -0.0803

Query block: Find the recorded PBM binding z-score belonging to TCGAGTAGGATACCAATGGGGCATTCAGCTTTCT and report it.
Result block: 1

Query block: Find the recorded PBM binding z-score belonging to TTACCAAGGTGATCTGAGGTCGTTGATCCAACTC and report it.
Result block: 0.904

Query block: Find the recorded PBM binding z-score belonging to ATCTCTAGGTACCCAAGTTCAGTGAATGCCGAAC and report it.
Result block: 0.72

Query block: Find the recorded PBM binding z-score belonging to CCTCGGAGGACAACAGGAAGTCAGAGCTGCCAGA and report it.
Result block: -0.28

Query block: Find the recorded PBM binding z-score belonging to CCTTACGGGTCACGGACAGGTTATAGCATTTGGA and report it.
Result block: 3.87

Query block: Find the recorded PBM binding z-score belonging to TCTATTAGTTGAAGGGCAACAGACGAGTCCGTTT and report it.
Result block: 2.12

Query block: Find the recorded PBM binding z-score belonging to GATACAGGGTCAGCAAGAGGCCAGAGTATGGAAA and report it.
Result block: 0.915

Query block: Find the recorded PBM binding z-score belonging to CGTCCAAGGTCAAGGTTAGTGAAAGAGACTCGAA and report it.
Result block: 3.18

Query block: Find the recorded PBM binding z-score belonging to GCAGACAGGCGAAACGCAGGTAACTCAGGGTGGC and report it.
Result block: -0.782

Query block: Find the recorded PBM binding z-score belonging to ACTAGCAGGCCAAGTTTAGGTCACTCAAACAAAG and report it.
Result block: 0.729

Query block: Find the recorded PBM binding z-score belonging to CCTAGCAGGCCAGGGTCACTAAAGCATTTCGCTT and report it.
Result block: 0.051

Query block: Find the recorded PBM binding z-score belonging to TCTCGGAGGAGACGAAAGGTCAGAGCTCGACATC and report it.
Result block: 0.912

Query block: Find the recorded PBM binding z-score belonging to AGAACGAGGGCACGCTGAGTTGATAGCTGAGTAG and report it.
Result block: 4.41

Query block: Find the recorded PBM binding z-score belonging to CCAACTAGGTCAAGAGGTCAAAGTCCGCTTCCCG and report it.
Result block: 8.09

Query block: Find the recorded PBM binding z-score belonging to ATCTAAAGGTCGACGAGGTGAGTATACACCGTTT and report it.
Result block: 0.916

Query block: Find the recorded PBM binding z-score belonging to TCGAGTAGGTTACCAATGGGGCATTGAGCTTTCT and report it.
Result block: 3.4

Query block: Find the recorded PBM binding z-score belonging to TCTTGTTGGTCACGGAGGTCACACACGACGGGTA and report it.
Result block: 2.92

Query block: Find the recorded PBM binding z-score belonging to CCTACTGGGACACGAAAGGTCATTGATTCAGTGA and report it.
Result block: 5.93

Query block: Find the recorded PBM binding z-score belonging to CGAACTAGCTCAGAACAGGACAGTGAAGGATGAT and report it.
Result block: -0.0249

Query block: Find the recorded PBM binding z-score belonging to CGAACTAGGTCATTGACAGGCCAGTGAATAGTAA and report it.
Result block: 8.3

Query block: Find the recorded PBM binding z-score belonging to ACTTACGGGTCAACGAGGTTGTAGCACGCGTATA and report it.
Result block: 3.1

Query block: Find the recorded PBM binding z-score belonging to TCTTGTAGATCAACAGGAGGTTAAGGAAGATCGA and report it.
Result block: 1.4
